TEST_DETAILS: in vitro
APPLIED_CONDITIONS: human
Bridge positions count the residues as written; N and C are the ends. Square brackets hold non-standard residues; d marks the D form. Peptide text beside a SMILES is read from it. 2Nal = N[C@@H](Cc1ccc2ccccc2c1)C(=O)O; Cit = NC(=O)NCCC[C@H](N)C(=O)O
ASSAY_READOUT: GI50 at 48 h (µM)
One number for each entry, in µM.

// GI50 at 48 h lookup, compound = C[C@@H](O)[C@@H]1NC(=O)[C@H]2CCCN2C(=O)CNC(=O)[C@H](CCCNC(=N)N)NC(=O)[C@@H]2CSSC[C@H](NC(=O)[C@H](Cc3ccc4ccccc4c3)NC(=O)[C@H](CCCNC(=N)N)NC1=O)C(=O)N[C@@H](Cc1ccc(O)cc1)C(=O)N[C@@H](CCC(N)=O)C(=O)N[C@@H](CCCCN)C(=O)N1CCC[C@@H]1C(=O)N1CCC[C@H]1C(=O)N[C@@H](Cc1ccc(O)cc1)C(=O)N[C@@H](CCCNC(=N)N)C(=O)N[C@@H](CCCNC(N)=O)C(=O)N2 [Ex. 56] (cyclo(YR[Cit]CRG[dP]TR[2Nal]CYQK[dP]P); disulfide 4-11) , result: 60

* * *

TEST_DETAILS: Pharmacokinetic study (PK) after single i.v. and i.p. administration
Format: in vivo, male CD-1 mice
APPLIED_CONDITIONS: male, CD-1, mouse, in vivo, ip, 10 mg/kg
Method: 2.9. Pharmacokinetic Study (PK) 30 grams (±20%) male CD-1 mice obtained from Charles River Laboratories Deutschland GmbH were used in the study. The vehicle, physiological saline, was added to give a final concentration of 1 mg/ml of the compounds. […] PK analysis was performed on pooled data (generally n=2 or 3) using the software PK solutions 2.0™ (Summit Research Service, Montrose, Colo. 81401 USA). The area under the curve AUC was calculated by the linear trapezoidal rule. […]
ASSAY_READOUT: level at 0.5 h
// return the numeric value with its unit appended

// level at 0.5 h lookup, molecule = N=C(N)NCCC[C@@H]1NC(=O)[C@@H]2CSSC[C@H](NC(=O)[C@H](Cc3ccc4ccccc4c3)NC(=O)[C@H](CCCNC(=N)N)NC(=O)[C@H](CCCNC(=N)N)NC(=O)[C@H]3CCCN3C(=O)CNC1=O)C(=O)N[C@@H](Cc1ccc(O)cc1)C(=O)N[C@@H](CCCNC(N)=O)C(=O)N[C@@H](CCCCN)C(=O)N1CCC[C@@H]1C(=O)N1CCC[C@H]1C(=O)N[C@@H](Cc1ccc(O)cc1)C(=O)N[C@@H](CCCNC(=N)N)C(=O)N[C@@H](CCCNC(N)=O)C(=O)N2 [Ex. 51] , result: 1570 ng/mL

* * *

TEST_DETAILS: in vitro
APPLIED_CONDITIONS: human
Bridge positions count the residues as written; N and C are the ends. Square brackets hold non-standard residues; d marks the D form. Peptide text beside a SMILES is read from it. 2Nal = N[C@@H](Cc1ccc2ccccc2c1)C(=O)O; Cit = NC(=O)NCCC[C@H](N)C(=O)O; Dab = NCC[C@H](N)C(=O)O
ASSAY_READOUT: GI50 at 48 h (µM)
Give bare numbers, in µM.

Solved cases (3 shown):
COMPOUND	GI50 at 48 h, µM
N=C(N)NCCC[C@@H]1NC(=O)[C@@H]2CSSC[C@H](NC(=O)[C@H](Cc3ccc(O)cc3)NC(=O)[C@H](CCCNC(=N)N)NC(=O)[C@H](CCCNC(=N)N)NC(=O)[C@H]3CCCN3C(=O)CNC1=O)C(=O)N[C@@H](Cc1ccc(O)cc1)C(=O)N[C@@H](CCC(N)=O)C(=O)N[C@@H](CCCCN)C(=O)N1CCC[C@@H]1C(=O)N1CCC[C@H]1C(=O)N[C@@H](Cc1ccc(O)cc1)C(=O)N[C@@H](CCCNC(=N)N)C(=O)N[C@@H](Cc1ccc(O)cc1)C(=O)N2 [Ex. 148] (cyclo(YRYCRG[dP]RRYCYQK[dP]P); disulfide 4-11)	46
N=C(N)NCCC[C@@H]1NC(=O)[C@@H]2CSSC[C@H](NC(=O)[C@H](Cc3ccc4ccccc4c3)NC(=O)[C@H](CCCNC(=N)N)NC(=O)[C@H](CCCNC(=N)N)NC(=O)[C@H]3CCCN3C(=O)CNC1=O)C(=O)N[C@@H](Cc1ccc(O)cc1)C(=O)N[C@@H](CCCNC(N)=O)C(=O)N[C@@H](CCCCN)C(=O)N1CCC[C@@H]1C(=O)N1CCC[C@H]1C(=O)N[C@@H](Cc1ccc(O)cc1)C(=O)N[C@@H](CCCNC(=N)N)C(=O)N[C@@H](CCC(N)=O)C(=O)N2 [Ex. 130] (cyclo(YRQCRG[dP]RR[2Nal]CY[Cit]K[dP]P); disulfide 4-11)	62
N=C(N)NCCC[C@@H]1NC(=O)[C@H](CCCNC(=N)N)NC(=O)[C@H]2CCCN2C(=O)CNC(=O)[C@H](CO)NC(=O)[C@@H]2CSSC[C@H](NC(=O)[C@H](Cc3ccc4ccccc4c3)NC1=O)C(=O)N[C@@H](Cc1ccc(O)cc1)C(=O)N[C@@H](CCC(N)=O)C(=O)N[C@@H](CCCCN)C(=O)N1CCC[C@@H]1C(=O)N1CCC[C@H]1C(=O)N[C@@H](Cc1ccc(O)cc1)C(=O)N[C@@H](CCCNC(=N)N)C(=O)N[C@@H](CCCNC(N)=O)C(=O)N2 [Ex. 101] (cyclo(YR[Cit]CSG[dP]RR[2Nal]CYQK[dP]P); disulfide 4-11)	74

// GI50 at 48 h lookup, compound = N=C(N)NCCC[C@@H]1NC(=O)[C@@H]2CSSC[C@H](NC(=O)[C@H](Cc3ccc4ccccc4c3)NC(=O)[C@H](CCCNC(=N)N)NC(=O)[C@H](CCN)NC(=O)[C@H]3CCCN3C(=O)CNC1=O)C(=O)N[C@@H](Cc1ccc(O)cc1)C(=O)N[C@@H](CCCNC(N)=O)C(=O)N[C@@H](CCCCN)C(=O)N1CCC[C@@H]1C(=O)N1CCC[C@H]1C(=O)N[C@@H](Cc1ccc(O)cc1)C(=O)N[C@@H](CCCNC(=N)N)C(=O)N[C@@H](CCCNC(N)=O)C(=O)N2 [Ex. 134] (cyclo(YR[Cit]CRG[dP][Dab]R[2Nal]CY[Cit]K[dP]P); disulfide 4-11) , result: 21
